target_entity: ferroportin (Fpn) (Mus musculus)
Construct: endogenous in cells
assay_explanation: Hepcidin Internalization Assay (J774)
condition_label: J774 cells, 25 nM TMR-hepcidin, 2 hours; average of multiple measurements; read-out: Average (AVE) IC50 of Fpn inhibitors in the hepcidin internalization assay
Where a name gives a salt, the structure may show the parent alone.
// reported log10(IC50) for each item listed
reported_property: log10(IC50) (log10 of the value in µM)

>>> number("COCCn1c(CCNCCc2nc3c(NCc4ncccc4F)nccc3o2)nc2cc3c(cc21)OCCO3")
-1.08
>>> number("COCCn1c(CCNCCc2nc3c(NCc4ncccc4F)nccc3o2)nc2ccccc21")
-2.05
>>> number("Cn1c(CCNCCc2nc3c(NCc4ncccc4F)nccc3o2)nc2ccccc21 [Example Compound No. 22, formate]")
-1.40
>>> number("Fc1cccnc1CNc1nccc2oc(CCNCCc3nc4ccccc4n3CCc3ccccc3)nc12")
1.60
>>> number("CN1CCN(CCn2c(CCNCCc3nc4c(NCc5ncccc5F)nccc4o3)nc3cc4c(cc32)OCCO4)CC1")
1.30
>>> number("COCCOCCn1c(CCNCCc2nc3c(NCc4ncccc4F)nccc3o2)nc2ccccc21")
-2.05
>>> number("Fc1cccnc1CNc1nccc2oc(CCNCCc3nc4cc5c(cc4n3-c3ccccc3)OCCO5)nc12 [Example Compound No. 23, formate]")
-1.74

====

target_entity: ferroportin (Fpn) (Mus musculus, UniProt Q9JHI9)
Construct: endogenous in cells; host or cells: J774 mouse macrophage cell line, induced with Fe(III)NTA
Sequence (Q9JHI9 1-570): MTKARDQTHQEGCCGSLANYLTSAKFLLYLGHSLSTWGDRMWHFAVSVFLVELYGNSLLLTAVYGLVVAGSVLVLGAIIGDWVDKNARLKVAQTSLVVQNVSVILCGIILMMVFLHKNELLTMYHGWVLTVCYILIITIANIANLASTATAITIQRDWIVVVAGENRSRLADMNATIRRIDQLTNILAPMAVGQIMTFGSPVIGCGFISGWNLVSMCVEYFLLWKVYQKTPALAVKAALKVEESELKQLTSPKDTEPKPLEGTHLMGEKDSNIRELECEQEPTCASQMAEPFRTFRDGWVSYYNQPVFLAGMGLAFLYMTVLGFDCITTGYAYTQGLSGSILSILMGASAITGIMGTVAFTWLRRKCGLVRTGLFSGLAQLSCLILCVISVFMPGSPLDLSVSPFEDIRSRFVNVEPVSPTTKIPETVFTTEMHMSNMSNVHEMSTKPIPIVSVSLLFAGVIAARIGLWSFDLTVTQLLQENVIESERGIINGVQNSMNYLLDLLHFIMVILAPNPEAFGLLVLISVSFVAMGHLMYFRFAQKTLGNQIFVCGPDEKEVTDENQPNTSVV
assay_explanation: Hepcidin Internalization Assay (J774)
Format: cell-based
condition_label: J774 cells, 25 nM TMR-hepcidin, 2 hours; average of multiple measurements; read-out: Average (AVE) IC50 of Fpn inhibitors in the hepcidin internalization assay
Counter-ions that a name gives are not always drawn.
Just a reminder that ties go to no: only IC50 strictly below 8 nM counts as yes.

>>> qualitative_label("Fc1cccnc1CNc1nccc2oc(CCNCCc3nc4cc5c(cc4n3CC3CC3)OCCO5)nc12")
"yes"
>>> qualitative_label("Fc1cccnc1CNc1nccc2oc(CCNCCc3nc4cc5c(cc4n3CCN3CCOCC3)OCCO5)nc12")
"no"
>>> qualitative_label("COCCOCCn1c(CCN2CC(c3nc4c(NCc5ncccc5F)nccc4o3)C2)nc2ccccc21")
"no"
>>> qualitative_label("Fc1cccnc1CNc1nccc2oc(CCNCCc3nc4ccccc4n3Cc3ccccn3)nc12")
"no"
>>> qualitative_label("Fc1cccnc1CNc1nccc2oc(CCNCCc3nc4ccccc4n3CC3CC3)nc12")
"no"
>>> qualitative_label("CCn1c(CCNCCc2nc3c(NCc4ncccc4F)nccc3o2)nc2cc3c(cc21)OCCO3 [Example Compound No. 21, formate]")
"no"
>>> qualitative_label("COc1cccc(Cn2c(CCNCCc3nc4c(NCc5ncccc5F)nccc4o3)nc3ccccc32)c1")
"yes"
>>> qualitative_label("COCCn1c(CCN2CC(c3nc4c(NCc5ncccc5F)nccc4o3)C2)nc2ccccc21")
"yes"
>>> qualitative_label("CCn1c(CCNCCc2nc3c(NCc4ncccc4F)nccc3o2)nc2ccccc21")
"no"
>>> qualitative_label("CN(C)CCn1c(CCNCCc2nc3c(NCc4ncccc4F)nccc3o2)nc2ccccc21")
"no"
>>> qualitative_label("Fc1cccnc1CNc1nccc2oc(CCNCCc3nc4ccccc4n3Cc3cccc(Cl)c3)nc12")
"no"
>>> qualitative_label("Fc1cccnc1CNc1nccc2oc(CCNCCc3nc4ccccc4n3CCN3CCOCC3)nc12")
"yes"
>>> qualitative_label("CN(C)CCn1c(CCNCCc2nc3c(NCc4ncccc4F)nccc3o2)nc2cc3c(cc21)OCCO3")
"no"
>>> qualitative_label("CC(C)OCCn1c(CCNCCc2nc3c(NCc4ncccc4F)nccc3o2)nc2ccccc21")
"yes"
>>> qualitative_label("Fc1cccnc1CNc1nccc2oc(CCNCCc3nc4ccccc4n3-c3ccccc3)nc12")
"no"
